Test: chemical genetic growth profiling, strain panel (AID 1159580);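 further: tested at 20 µM; growth read once vehicle control cultures reached saturation at 30 °C; 1 = growth at the plate median or of vehicle wells; lower values mean less growth of the strain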
Conditions: S. cerevisiae deletion strains, growth OD, locus YJL187C, strain SWE1 (second series), hits give low values
Hit rate of the full screen: of about 5,500 compounds, about 2,000 (36%) were called active. Not shown: some 18% with an inconclusive outcome. The list shows a part of the results.
Task for the reader: assign each of the following molecules its reported normalized growth.
Give the value as a plain number.

For the molecule `COC1=CC(=O)C=C(OC)C1=O` , give its reported normalized growth.
0.987

For the molecule NC[C@H]1O[C@H](OC2[C@@H](N)C[C@@H](N)[C@H](O[C@H]3O[C@H](CO)[C@@H](O)[C@H](N)[C@H]3O)[C@H]2O)[C@H](O)[C@@H](O)[C@@H]1O (stereo partly specified) , give its reported normalized growth.
0.984

For the molecule `CC(C)Nc1nc(Cl)nc(NC(C)C)n1` , give its reported normalized growth.
1.01

For the molecule `CSc1nc(NC(C)C)nc(NC(C)C)n1` , give its reported normalized growth.
1.01

For the molecule `CN(C)C(=O)C(CCN1CCC(O)(c2ccc(Cl)cc2)CC1)(c1ccccc1)c1ccccc1` , give its reported normalized growth.
1.02

For the molecule C[C@@H]1CCC2[C@](C)(CO)[C@@H](O)CC[C@]2(C)[C@@]12CC[C@@](CO)(CCO)O2 (stereo partly specified) , give its reported normalized growth.
1
